system: A549/ATCC NSCLC; assay: NCI-60 one-dose screen, 48 h (100 = growth as untreated, 0 = no growth, -100 = all killed); conditions: 10 µM unless noted
About 83,000 compounds went through this panel and 20% of them were active in at least one assay; those are over-represented in the sample as a whole.
Label 1 (yes) when growth is at or above 50%; anything below gets 0 (no).

# count of solved cases: 8
INSERT INTO results (molecule, target_or_system, group_label) VALUES
  ('CS(=O)(=O)c1ccc(-c2cnn3ccc(-c4cccc(S(=O)(=O)C5CC5)c4)nc23)cc1', 'A549/ATCC NSCLC', '0 (no)'),
  ('O=c1[nH]c(-c2ccccc2)nc2sc3cc(O)ccc3c12', 'A549/ATCC NSCLC', '1 (yes)'),
  ('Cn1ccnc1C(=O)/C=C/c1ccc(CC(=O)Nc2cc(C(F)(F)F)cc(C(F)(F)F)c2)cc1', 'A549/ATCC NSCLC', '1 (yes)'),
  ('COc1ccc(Cc2cnc(NC(=O)c3cc(C)oc3C)s2)cc1', 'A549/ATCC NSCLC', '0 (no)'),
  ('COC(=O)/C=C1/SC(=Nc2ccc(C(F)(F)F)cc2)N(CCc2c[nH]c3ccc(O)cc23)C1=O', 'A549/ATCC NSCLC', '0 (no)'),
  ('N#Cc1c(-c2ccc(Cl)cc2)c(C#N)c2c(C#N)c(N)nn2c1N', 'A549/ATCC NSCLC', '1 (yes)'),
  ('Clc1cc(Cl)c(Cl)c(-c2nnc(SCc3ccncc3Br)o2)c1', 'A549/ATCC NSCLC', '1 (yes)'),
  ('Cc1cc(S(=O)(=O)/N=C(\N)n2nc(C)c(C)c2C)c(SCc2ccccc2)cc1Cl', 'A549/ATCC NSCLC', '1 (yes)');

Quick check, growth >= 50%? C#CCNC(=O)[C@H](CC)[C@H]1CC[C@H](C)[C@H]([C@@H](C)[C@H](O)[C@H](C)C(=O)[C@H](CC)C2O[C@]3(C=CC(=O)[C@]4(CC[C@@](C)([C@H]5CC[C@](O)(CC)[C@H](C)O5)O4)O3)[C@H](C)C[C@@H]2C)O1 (some centres undefined)
0 (no)

How about this molecule: `Fc1cccc(Oc2ccc(Nc3ncnc4ccc(OCCCN5CCOCC5)cc34)cc2Cl)c1`
0 (no)

How about this molecule: `CC1=NC2=Nn3c(c4cnn(-c5ccccc5)c4n/c3=N\N)NN2C(c2ccccc2)=C1`
1 (yes)

How about this molecule: `O=C1/C(=C/c2ccc([N+](=O)[O-])cc2)COc2ccc(O)cc21`
1 (yes)

How about this molecule: `CN(C)Cc1ccc(O)c(C(=O)O)c1`
1 (yes)

How about this molecule: `CC(=O)n1nc(C(=O)OC(C)(C)c2ccccc2)c2ccccc21`
1 (yes)

How about this molecule: `CC(C)C1=NOC(=O)C1=Cc1cn(-c2ccccc2)nc1-c1ccc(F)cc1`
1 (yes)

How about this molecule: `COc1cc(NS(=O)(=O)c2ccc(-c3cnc(C4CC4)o3)cc2)ccc1F`
0 (no)

How about this molecule: `Cn1ccnc1C(=O)/C=C/c1ccc(C(=O)Nc2ccc(Cl)cc2)cc1`
0 (no)

How about this molecule: `CCCNc1nc2ccccc2c2c1S(=O)(=O)c1ccc(Cl)cc1C2=O`
0 (no)
